Data origin: ChEMBL document CHEMBL4627258

molecular target: Antigen-presenting glycoprotein CD1d (Mus musculus) (UniProt P11609+P11610); assay: Binding affinity to WTB6 mouse thymus CD1d assessed as restriction ratio for reduction in iNKT/CD1d interaction by FACS analysis relative to control; format: protein assay
Ratio: recorded values

| Substance smiles | Ratio |
| --- | --- |
| CCCCCCCCCCCCCC[C@@H](O)[C@@H](O)[C@H](CO[C@H]1O[C@H](CO)[C@H](O)[C@H](O)[C@H]1O)NC(=O)CCCCOc1ccc(/N=N/c2ccccc2)cc1 | 0.09% |
| CCCCCCCCCCCCCC[C@@H](O)[C@@H](O)[C@H](CO[C@H]1O[C@H](CO)[C@H](O)[C@H](O)[C@H]1O)NC(=O)CCCCCCCCCCOc1ccc(/N=N/c2ccccc2)cc1 | 0.36% |
| CCCCCCCCCCCCCC[C@@H](O)[C@@H](O)[C@H](CO[C@H]1O[C@H](CO)[C@H](O)[C@H](O)[C@H]1O)NC(=O)CCCCCCCCCCOc1ccc(/N=N\c2ccccc2)cc1 | 0.44% |
| CCCCCCCCCCCCCCCCCCCCCCCCCC(=O)N[C@@H](CO[C@H]1O[C@H](CO)[C@H](O)[C@H](O)[C@H]1O)[C@H](O)[C@H](O)CCCCCCCCCCCCCC | 0.45% |
| CCCCCCCCCCCCCC[C@@H](O)[C@@H](O)[C@H](CO[C@H]1O[C@H](CO)[C@H](O)[C@H](O)[C@H]1O)NC(=O)CCCCCCCCOc1ccc(/N=N/c2ccccc2)cc1 | 0.28% |

---

Each entry below carries its recorded Ratio.
molecular target: Antigen-presenting glycoprotein CD1d (Mus musculus) (UniProt P11609+P11610); experiment: Binding affinity to WTB6 mouse thymus CD1d assessed as restriction ratio for reduction in iNKT/CD1d interaction by FACS analysis relative to control; type: protein assay
Property label: Ratio (%)

| Substance smiles | System under test | Property label | Reading unit | Readout number |
| --- | --- | --- | --- | --- |
| CCCCCCCCCCCCCC[C@@H](O)[C@@H](O)[C@H](CO[C@H]1O[C@H](CO)[C@H](O)[C@H](O)[C@H]1O)NC(=O)CCCCOc1ccc(/N=N\c2ccccc2)cc1 | Antigen-presenting glycoprotein CD1d (Mus musculus) (UniProt P11609+P11610) | Ratio | % | 0.05 |
| CCCCCCCCCCCCCC[C@@H](O)[C@@H](O)[C@H](CO[C@H]1O[C@H](CO)[C@H](O)[C@H](O)[C@H]1O)NC(=O)CCCCCCOc1ccc(/N=N/c2ccccc2)cc1 | Antigen-presenting glycoprotein CD1d (Mus musculus) (UniProt P11609+P11610) | Ratio | % | 0.35 |
| CCCCCCCCCCCCCC[C@@H](O)[C@@H](O)[C@H](CO[C@H]1O[C@H](CO)[C@H](O)[C@H](O)[C@H]1O)NC(=O)CCCCCCCCOc1ccc(/N=N\c2ccccc2)cc1 | Antigen-presenting glycoprotein CD1d (Mus musculus) (UniProt P11609+P11610) | Ratio | % | 0.37 |
| CCCCCCCCCCCCCC[C@@H](O)[C@@H](O)[C@H](CO[C@H]1O[C@H](CO)[C@H](O)[C@H](O)[C@H]1O)NC(=O)CCCCCCOc1ccc(/N=N\c2ccccc2)cc1 | Antigen-presenting glycoprotein CD1d (Mus musculus) (UniProt P11609+P11610) | Ratio | % | 0.4 |

---

Listed next: entries and their corresponding Ratio.
target: Antigen-presenting glycoprotein CD1d (Mus musculus) (UniProt P11609+P11610); assay: Binding affinity to CD1d in Traj18 knock out C57BL/6 mouse assessed as restriction ratio for reduction in iNKT/CD1d interaction by FACS analysis relative to control; assay type: protein assay
Property label: Ratio

| Substance smiles | Result |
| --- | --- |
| CCCCCCCCCCCCCC[C@@H](O)[C@@H](O)[C@H](CO[C@H]1O[C@H](CO)[C@H](O)[C@H](O)[C@H]1O)NC(=O)CCCCOc1ccc(/N=N\c2ccccc2)cc1 | 0.57% |
| CCCCCCCCCCCCCC[C@@H](O)[C@@H](O)[C@H](CO[C@H]1O[C@H](CO)[C@H](O)[C@H](O)[C@H]1O)NC(=O)CCCCCCCCCCOc1ccc(/N=N/c2ccccc2)cc1 | < 0.02% |
| CCCCCCCCCCCCCC[C@@H](O)[C@@H](O)[C@H](CO[C@H]1O[C@H](CO)[C@H](O)[C@H](O)[C@H]1O)NC(=O)CCCCCCCCOc1ccc(/N=N/c2ccccc2)cc1 | < 0.02% |
| CCCCCCCCCCCCCC[C@@H](O)[C@@H](O)[C@H](CO[C@H]1O[C@H](CO)[C@H](O)[C@H](O)[C@H]1O)NC(=O)CCCCCCCCCCOc1ccc(/N=N\c2ccccc2)cc1 | < 0.02% |
| CCCCCCCCCCCCCC[C@@H](O)[C@@H](O)[C@H](CO[C@H]1O[C@H](CO)[C@H](O)[C@H](O)[C@H]1O)NC(=O)CCCCCCOc1ccc(/N=N\c2ccccc2)cc1 | < 0.02% |
| CCCCCCCCCCCCCCCCCCCCCCCCCC(=O)N[C@@H](CO[C@H]1O[C@H](CO)[C@H](O)[C@H](O)[C@H]1O)[C@H](O)[C@H](O)CCCCCCCCCCCCCC | < 0.02% |
| CCCCCCCCCCCCCC[C@@H](O)[C@@H](O)[C@H](CO[C@H]1O[C@H](CO)[C@H](O)[C@H](O)[C@H]1O)NC(=O)CCCCOc1ccc(/N=N/c2ccccc2)cc1 | 0.28% |
| CCCCCCCCCCCCCC[C@@H](O)[C@@H](O)[C@H](CO[C@H]1O[C@H](CO)[C@H](O)[C@H](O)[C@H]1O)NC(=O)CCCCCCOc1ccc(/N=N/c2ccccc2)cc1 | < 0.02% |
| CCCCCCCCCCCCCC[C@@H](O)[C@@H](O)[C@H](CO[C@H]1O[C@H](CO)[C@H](O)[C@H](O)[C@H]1O)NC(=O)CCCCCCCCOc1ccc(/N=N\c2ccccc2)cc1 | < 0.02% |

---

molecular target: Antigen-presenting glycoprotein CD1d (Mus musculus) (UniProt P11609+P11610); assay: Binding affinity to WTB6 mouse spleen CD1d assessed as restriction ratio for reduction in iNKT/CD1d interaction by FACS analysis relative to control; type: protein assay
Classification scheme (Ratio): range 1 (below 0.3%), range 2 (0.3% to below 0.5%), range 3 (0.5% or more)

| Substance smiles | Answer label |
| --- | --- |
| CCCCCCCCCCCCCC[C@@H](O)[C@@H](O)[C@H](CO[C@H]1O[C@H](CO)[C@H](O)[C@H](O)[C@H]1O)NC(=O)CCCCCCCCOc1ccc(/N=N\c2ccccc2)cc1 | range 2 |
| CCCCCCCCCCCCCC[C@@H](O)[C@@H](O)[C@H](CO[C@H]1O[C@H](CO)[C@H](O)[C@H](O)[C@H]1O)NC(=O)CCCCOc1ccc(/N=N\c2ccccc2)cc1 | range 1 |
| CCCCCCCCCCCCCC[C@@H](O)[C@@H](O)[C@H](CO[C@H]1O[C@H](CO)[C@H](O)[C@H](O)[C@H]1O)NC(=O)CCCCOc1ccc(/N=N/c2ccccc2)cc1 | range 1 |
| CCCCCCCCCCCCCCCCCCCCCCCCCC(=O)N[C@@H](CO[C@H]1O[C@H](CO)[C@H](O)[C@H](O)[C@H]1O)[C@H](O)[C@H](O)CCCCCCCCCCCCCC | range 3 |
| CCCCCCCCCCCCCC[C@@H](O)[C@@H](O)[C@H](CO[C@H]1O[C@H](CO)[C@H](O)[C@H](O)[C@H]1O)NC(=O)CCCCCCOc1ccc(/N=N/c2ccccc2)cc1 | range 2 |
| CCCCCCCCCCCCCC[C@@H](O)[C@@H](O)[C@H](CO[C@H]1O[C@H](CO)[C@H](O)[C@H](O)[C@H]1O)NC(=O)CCCCCCCCOc1ccc(/N=N/c2ccccc2)cc1 | range 2 |
| CCCCCCCCCCCCCC[C@@H](O)[C@@H](O)[C@H](CO[C@H]1O[C@H](CO)[C@H](O)[C@H](O)[C@H]1O)NC(=O)CCCCCCCCCCOc1ccc(/N=N\c2ccccc2)cc1 | range 3 |
| CCCCCCCCCCCCCC[C@@H](O)[C@@H](O)[C@H](CO[C@H]1O[C@H](CO)[C@H](O)[C@H](O)[C@H]1O)NC(=O)CCCCCCOc1ccc(/N=N\c2ccccc2)cc1 | range 2 |
